SYSTEM_UNDER_TEST: CyclinB1/CDK1 (Homo sapiens, UniProt P14635)
Construct: purchased Eurofins, discovery 14-450
ASSAY_DETAILS: Fluorescence Polarization (FP) competitive binding assay, Cyclin B1/Cdk1;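 also: fluorescence polarization read after equilibration at room temperature, with IC50 taken from serially diluted dose-response curves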
COND: 10 nM Cyclin B1/Cdk1, 2 nM FAM probe; average of 2-3 independent experiments; read-out: Cyclin B FP IC50
*1 amine or outer side, *2 acyl side, *3 side chain or, on linkers, in order; H or OH if unused. Where a SMILES comes first, the peptide text is derived from it. Bridges are numbered along the chain shown (N, C = ends). [ ]: non-standard residue; d: D form. The star is where a group is joined. X157 = CN([C@@H](Cc1cc(Cl)ccc1-c1ccc(S(=O)(=O)N2CCOCC2)cc1)C(=O)[*:2])[*:1]; X197 = CN([C@@H](Cc1cc(Cl)ccc1-c1ccc(=O)[nH]c1)C(=O)[*:2])[*:1]; NMehhhLys(Me) = CN([C@@H](CCCCCCCN(C)[*:3])C(=O)[*:2])[*:1]; cBuCO(3,3-F2-1-CF3) = O=C(C1(C(F)(F)F)CC(F)(F)C1)*; Pro(trans-4-F) = O=C(O)[C@@H]1C[C@@H](F)CN1; Gly(cPr) = N[C@H](C(=O)O)C1CC1
REPORTED_ENDPOINT: IC50
A bare number is not enough; add the unit after it.

Example cases with answers are listed next.
INSERT INTO measurements (compound, reported_endpoint, value) VALUES
  ('CC(C)C[C@@H]1NC(=O)[C@@H](N(C)C(=O)[C@@H](NC(=O)[C@@H]2C[C@@H](F)CN2C(=O)C2(C(F)(F)F)CC(F)(F)C2)C2CC2)CCCCCCCN(C)C(=O)[C@H](Cc2cc(Cl)ccc2-c2ccc(S(=O)(=O)N3CCOCC3)cc2)N(C)C1=O [Example 354] ({cBuCO(3,3-F2-1-CF3)}-[Pro(trans-4-F)][Gly(cPr)][NMehhhLys(Me)]L[X157]; lactam 3-C)', 'IC50', '0.02 µM'),
  ('CC(C)C[C@@H]1NC(=O)[C@@H](N(C)C(=O)[C@@H](NC(=O)[C@@H]2C[C@@H](F)CN2C(=O)C2(C(F)(F)F)CC(F)(F)C2)C2CC2)CCCCCCCN(C)C(=O)[C@H](Cc2cc(Cl)ccc2-c2ccc(=O)[nH]c2)N(C)C1=O [Example 180] ({cBuCO(3,3-F2-1-CF3)}-[Pro(trans-4-F)][Gly(cPr)][NMehhhLys(Me)]L[X197]; lactam 3-C)', 'IC50', '0.02 µM');

Now for the compound whose IC50 we want.
Req: Param item = CC(C)C[C@@H]1NC(=O)[C@@H](N(C)C(=O)[C@@H](NC(=O)[C@@H]2C[C@@H](F)CN2C(=O)C2(C(F)(F)F)CC(F)(F)C2)C2CC2)CC=CCCCCNC(=O)[C@H](Cc2cc(Cl)ccc2Cl)N(C)C1=O (single isomer, unassigned) [Example 6-P1] ; retrieve measured IC50.
Resp: 0.02 µM
